Hi there, I'd appreciate the recorded abundance fitness for every entry that follows.
B1: GA-binding protein alpha chain, residues 172 to 250; numbered along this chain, Q06546 (parent)
chain: GYRKEQERLGIPYDPIQWSTDQVLHWVVWVMKEFSMTDIDLTTLNISGRELCSLNQEDFFQRVPRGEILWSHLELLRKY

Variants of: B1
test.summary: abundance fitness (aPCA) (normalised: wild type 0, dead -1); higher = more abundant; growth selection in yeast, the domain comes from the species named
condition.parameters: Homo sapiens
Give bare numbers.

Solved cases below.
[[record]]
variant_spec = "W70Y"
reported = -0.058

[[record]]
variant_spec = "L69E"
reported = -0.934

[[record]]
variant_spec = "M36I"
reported = -0.05

[[record]]
variant_spec = "F59A"
reported = -0.813

[[record]]
variant_spec = "E74N"
reported = -0.226

[[record]]
variant_spec = "E74T"
reported = -0.161

[[record]]
variant_spec = "K32I"
reported = -0.582

[[record]]
variant_spec = "Q17T"
reported = -0.029

[[record]]
variant_spec = "R62C"
reported = -0.143

[[record]]
variant_spec = "N45K"
reported = 0.032


Below is a list of variants. For each, state its recorded abundance fitness.
1. L73Y
2. I39D
3. K78D
4. P15E
5. V28W
6. D58M
7. V23R
8. Q61A

-0.962
-0.288
0.023
-1
-0.043
-0.004
-0.724
-0.014

Provide each entry's abundance fitness from the list below.
1. G10D
2. H72A
3. G1L
4. L54F
5. D21H
6. Q56H
7. S53G

1: -0.196; 2: -0.244; 3: -0.634; 4: -0.051; 5: -0.049; 6: -0.049; 7: -0.068

Kindly give each listed record's abundance fitness.
1. E33W
2. G10W
3. P64A
4. S35H

[-0.566, -0.464, -0.295, 0.008]

Value sought for every listed variant: abundance fitness.
1. L75Q
2. D58L
3. L51D
4. Y79M
5. G66A
6. R3G

-0.08
-0.087
-0.786
-0.299
-0.025
-0.176

The following variants each have a reported value; give each one's abundance fitness.
1. D14T
2. V23G
3. L24F
4. I46K
5. Q17P
6. R77W
7. L69H

1: -0.868; 2: -0.982; 3: -0.119; 4: -0.835; 5: -0.942; 6: -0.873; 7: -0.259

For each of the items listed, what is its abundance fitness?
1. Q56F
2. T20N
3. V63E
4. E50D

[-0.087, 0.103, -0.563, -0.041]
